Molecular target: Cytochrome P450 1A2 (Homo sapiens)
Assay: Cytochrome P450 Family 1 Subfamily A Member 2 (CYP1A2) small molecule antagonists: luciferase reporter qHTS assay (AID 1671199); also: nearly all actives have a fitted effect of over 50% in size
Settings: P450-Glo CYP1A2 enzyme, luciferin luminescence, 1 h; series mostly up to 53 µM
Results filed as inconclusive are left out. The source made the active and inactive calls. Calls follow the shape of the dose curve; as a rule, active = well fitted inhibition curve with a large enough effect in the repeat runs; inconclusive = weak or mixed curves; inactive = no such curve, though single readings can be large or run the other way.
Possible outcomes: yes = active, no = inactive

molecule=CCCCN(CCCC)c1ccc(C(=O)c2ccccc2C(=O)O)c(O)c1 class_assignment=yes
molecule=N=C1C=CC(=C(c2ccc(N)cc2)c2ccc(N)cc2)C=C1 class_assignment=yes
molecule=CCCCN1C(=O)[C@@H]([C@H](O)C2CCCCC2)NC(=O)C12CCN(Cc1ccc(Oc3ccc(C(=O)O)cc3)cc1)CC2 class_assignment=no
molecule=O=c1[nH]sc2ccccc12 class_assignment=yes
molecule="CCCCC(CC)CN=C(N)NC(N)=NCCCCCCN=C(N)NC(N)=NCC(CC)CCCC (configuration not stated)" class_assignment=yes
molecule=C[n+]1ccn(Cc2ccccc2)c1 class_assignment=no
molecule=CCCCCCCCCCCCCCCC(=O)OC[C@H](O)[C@H]1OC(=O)C(O)=C1O class_assignment=no
molecule=COc1c(C)c2c(c(O)c1C/C=C(\C)CCC(=O)O)C(=O)OC2 class_assignment=no
molecule=Clc1ccc2cc3ccccc3cc2c1 class_assignment=yes
molecule=N=C1N=C(N)c2cc3ccccc3cc21 class_assignment=yes
molecule=CC1(C)CCC(C)(C)c2cc(C(=O)Nc3ccc(C(=O)O)cc3)ccc21 class_assignment=no
molecule=Cc1cc(N)c(S(=O)(=O)O)cc1Cl class_assignment=no

* * *

Experiment: qHTS assay to identify small molecule antagonists of the TGF-beta/Smad signaling pathway - cell viability counter screen (AID 1346824); also: nearly all actives have a fitted effect of over 50% in size
Conditions: SBE-bla HEK293T viability, CellTiter-Glo luminescence; series mostly up to 76.8 µM
Results filed as inconclusive are left out. Active and inactive are the calls of the source. Calls follow the shape of the dose curve; as a rule, active = well fitted cell-killing curve with a large enough effect in the repeat runs; inconclusive = weak or mixed curves; inactive = flat fitted curve, though single readings scatter.
Possible outcomes: active, inactive

molecule=O=c1cccccc1O class_assignment=inactive
molecule=Cc1onc(-c2ccccc2Cl)c1C(=O)N[C@@H]1C(=O)N2[C@@H]1SC(C)(C)[C@@H]2C(=O)O class_assignment=inactive
molecule=Cc1cc(N)c(S(=O)(=O)O)cc1Cl class_assignment=inactive
molecule=O=C(NOCC1CC1)c1ccc(F)c(F)c1Nc1ccc(I)cc1Cl class_assignment=inactive
molecule=O=Cc1cc(O)ccc1Br class_assignment=inactive
molecule=Cc1ccc2oc(CN(Cc3ccccc3)C(=O)Nc3c(F)cc(F)cc3F)c(-c3ccc(Cl)cc3)c2c1 class_assignment=inactive
molecule=Cc1ccc(O)c(C(C)(C)C)c1 class_assignment=inactive
molecule="CCCCCCCCCCCCCC[P+](CCCC)(CCCC)CCCC (tested in a mixture with another compound)" class_assignment=active
molecule=Cc1cc(CCN2CCN(c3nsc4ccccc34)CC2)cc2c1NC(=O)CC2(C)C class_assignment=active
molecule=CSc1cnc(C)cn1 class_assignment=inactive
molecule="Cc1cccc(CN2CCN(C(c3ccccc3)c3ccc(Cl)cc3)CC2)c1 (stereo unspecified)" class_assignment=inactive

* * *

Assay: qHTS assay for small molecule activators of the heat shock response signaling pathway - cell viability counter screen (AID 743209); also: nearly all actives have a fitted effect of over 50% in size
Details: HSE-bla HeLa viability, CellTiter-Glo luminescence, 5 h; series mostly up to 62.6 µM
From the text: U.S. Tox21 Program National Center for Advancing Translational Sciences [NCATS] NIH Chemical Genomics Center [NCGC] U.S. Environmental Protection Agency [EPA] National Institutes of Environmental Health Sciences [NIEHS] National Toxicology Program [NTP] U.S. Food and Drug Administration [FDA] Tox21 Assay Overview: Various chemicals, environmental and physiological stress conditions may lead to the activation of heat shock response/ unfolded protein response (HSR/UPR). […]
Records with an inconclusive call do not appear. Active and inactive are the calls of the source. The call rests on the fitted dose curve; in most records, active means well fitted cell-killing curve with a large enough effect in the repeat runs; inconclusive means weak or mixed curves, or effect the other way; inactive means no such curve, though single readings can be large or run the other way.
Possible outcomes: active, inactive

molecule=O=C(O)c1ccc(Cl)c(Cl)c1 class_assignment=inactive
molecule="COC(=O)C1=C(C)NC(C)=C(C(=O)OCC(C)C)C1c1ccccc1[N+](=O)[O-] (centres undefined)" class_assignment=inactive
molecule=CCCCCCCC/C=C/CCCCCCCC1=NCCN1CCO class_assignment=active
molecule=Cn1cc(C(=O)[C@@H]2CCc3nc[nH]c3C2)c2ccccc21 class_assignment=inactive
molecule=Oc1cc2ccccc2c2ccccc12 class_assignment=active
molecule="CCCC(C)c1ccccc1O (centres undefined)" class_assignment=inactive
molecule="CCCC1O[C@@H]2C[C@H]3[C@@H]4CCC5=CC(=O)C=C[C@]5(C)[C@H]4[C@@H](O)C[C@]3(C)[C@]2(C(=O)CO)O1 (some centres undefined)" class_assignment=inactive
molecule="CCN(CC)CCCC(C)Nc1c2ccc(Cl)cc2nc2ccc(OC)cc12 (centres undefined)" class_assignment=inactive
molecule=C[C@@H]1C[C@H]2[C@@H]3CCC4=CC(=O)C=C[C@]4(C)[C@@]3(Cl)[C@@H](O)C[C@]2(C)[C@@]1(OC(=O)c1ccco1)C(=O)CCl class_assignment=inactive
molecule=O=C(Oc1ccccc1)c1ccccc1C(=O)Oc1ccccc1 class_assignment=inactive
molecule=Cc1cccc2c1cc1ccc3cccc4ccc2c1c34 class_assignment=inactive
molecule=Cc1cc(N)c(S(=O)(=O)O)cc1Cl class_assignment=inactive
molecule=O=C(Nc1cccc([N+](=O)[O-])c1)c1cc2ccccc2cc1O class_assignment=inactive
molecule=CN(C)c1ccc(SC#N)cc1 class_assignment=inactive
molecule=Cc1c(C)c2c(c(C)c1OC(=O)CCC(=O)O)CC[C@@](C)(CCC[C@H](C)CCC[C@H](C)CCCC(C)C)O2 class_assignment=inactive
molecule=O=c1cc(-c2ccc(O)cc2)oc2cc(O)cc(O)c12 class_assignment=active
molecule=NNc1nc(-c2ccc(N)cc2)cs1 class_assignment=inactive
molecule="Cc1cccc(N(C)C(=S)Oc2ccc3c(c2)C2CCC3C2)c1 (centres undefined)" class_assignment=inactive
molecule=CCCCCCC[N+](CC)(CC)CCCCc1ccc(Cl)cc1 class_assignment=inactive
molecule=CCCCCCCCCCCCCCCCCC[N+](C)(C)C class_assignment=active
molecule=CS(=O)(=O)CCNCc1ccc(-c2ccc3ncnc(Nc4ccc(OCc5cccc(F)c5)c(Cl)c4)c3c2)o1 class_assignment=active
molecule=CCCCCOC(=O)CCCC class_assignment=inactive
molecule=O=CC=C(c1ccccc1)c1ccccc1 class_assignment=inactive
molecule=Nc1c(Cl)cc(Cl)cc1Cl class_assignment=inactive
